Here the recorded melting point is given for each entry.
ASSAY_READOUT: melting point

compound=CC(C)c1sc(N)nc1-c1ccccc1 assay_readout="melting point" observed_value="231 to 233 °C"
compound=COc1ccc(-c2n[nH]c(S)nc2=O)cc1 assay_readout="melting point" observed_value="284 to 286 °C"
compound=CCOC(=O)c1nc(NCc2ccccc2)sc1C assay_readout="melting point" observed_value="98 to 100 °C"
compound=O=Cc1cn(-c2ccccc2)nc1-c1cccc(Br)c1 assay_readout="melting point" observed_value="91 to 93 °C"
compound=Cc1ccc(-c2nc(CC(=O)O)cs2)cc1 assay_readout="melting point" observed_value="139 to 141 °C"
compound=O=C(O)CSCCc1ccccc1 assay_readout="melting point" observed_value="56 to 58 °C"
compound="CC(C)(C)OC(=O)NC(C#N)c1ccc(F)cc1 (stereo not drawn)" assay_readout="melting point" observed_value="85 to 87 °C"
compound=CCn1c(S)nnc1-c1cccs1 assay_readout="melting point" observed_value="103 to 105 °C"
compound=Cc1cc(C(=O)O)ccc1N1CCCS1(=O)=O assay_readout="melting point" observed_value="174 to 176 °C"
compound="N#CC(Cl)c1c(F)cccc1Cl (stereo not drawn)" assay_readout="melting point" observed_value="49 to 51 °C"
compound=Cc1nc2sccn2c1CO assay_readout="melting point" observed_value="180 to 182 °C"
compound=CCN(CC)c1ccc(S(N)(=O)=O)cc1NC(=O)CCl assay_readout="melting point" observed_value="135 to 137 °C"
compound=NCC1(O)Cc2ccccc2C1 assay_readout="melting point" observed_value="64 to 66 °C"
